# MEASURED TARGET: human recombinant AR (hAR) (Homo sapiens, UniProt P15121)
# Construct: made in house
# ASSAY REMARKS: Aldose reductase assay, L-idose reduction (NADPH oxidation at 340 nm)
# Format: biochemical
# CONDITION PARAMETERS: substrate L-idose
READOUT LABEL: Inhibition model

O=C(CCc1ccc(O)cc1)c1c(O)cc(O)cc1O = Mixed
C[C@@H]1O[C@@H](OC[C@H]2O[C@@H](Oc3c(-c4ccc(O)c(O)c4)oc4cc(O)cc(O)c4c3=O)[C@H](O)[C@@H](O)[C@@H]2O)[C@H](O)[C@H](O)[C@H]1O = Mixed

----------
# MEASURED TARGET: human recombinant AR (hAR) (Homo sapiens)
# Construct: made in house
# ASSAY REMARKS: Aldose reductase assay, HNE reduction (NADPH oxidation at 340 nm)
# Type: biochemical
# CONDITION PARAMETERS: substrate HNE
READOUT LABEL: Inhibition model

O=C(CCc1ccc(O)cc1)c1c(O)cc(O)cc1O = Mixed
